Test system: Bacillus subtilis DB104 (SP-AmyQ fusion secretion)
Assay: AmyQ secretion efficiency, weighted average sort bin (1 = best secretion, 10 = worst) (bin number (weighted average, 1-10)); higher = lower secretion efficiency
measured property: AmyQ secretion efficiency
Numbers only.

Before answering, review these 5 worked examples.
[[record]]
primary_sequence = "MKLSVKIAGVLTVAAAAMTAKMYCTAKGN"
reported_result = 7.19

[[record]]
primary_sequence = "MKKAFILSAAAAVGLFTFGGVQQASAADD"
reported_result = 3.55

[[record]]
primary_sequence = "MFNRLFRVCFLAALIMAFTLPNSSYAQKP"
reported_result = 2.08

[[record]]
primary_sequence = "MKKIMSGKKGMVLLTIFCFSPQASAAYD"
reported_result = 5.2

[[record]]
primary_sequence = "MGGMSCSILVVSVTLFFSFLTIGPLAHAQNS"
reported_result = 2.24


Required: AmyQ secretion efficiency, one value per sequence below.
1. MMIKQCVICLSLLVFGTTAAHAARR
2. MKKRLIAPMLLSAASLAFFAMSGSQQAAAY
3. MKSKWMSGLLLVAVGFSFRKKKKKVHAGET
4. MKRLLSTLLIGIMLLTFAPSAFGKQD
5. MKKTIMSFVAVAALSTTAFGAHASAKKR
6. MTKLKMLSMLTVMIASLFIFSKKRRRKALAVQY

[5.39, 4.52, 7.2, 1.17, 2.68, 7.47]
